Biological target: Tyrosine-protein phosphatase non-receptor type 11 (Homo sapiens, UniProt Q06124)
Sequence (Q06124 whole entry): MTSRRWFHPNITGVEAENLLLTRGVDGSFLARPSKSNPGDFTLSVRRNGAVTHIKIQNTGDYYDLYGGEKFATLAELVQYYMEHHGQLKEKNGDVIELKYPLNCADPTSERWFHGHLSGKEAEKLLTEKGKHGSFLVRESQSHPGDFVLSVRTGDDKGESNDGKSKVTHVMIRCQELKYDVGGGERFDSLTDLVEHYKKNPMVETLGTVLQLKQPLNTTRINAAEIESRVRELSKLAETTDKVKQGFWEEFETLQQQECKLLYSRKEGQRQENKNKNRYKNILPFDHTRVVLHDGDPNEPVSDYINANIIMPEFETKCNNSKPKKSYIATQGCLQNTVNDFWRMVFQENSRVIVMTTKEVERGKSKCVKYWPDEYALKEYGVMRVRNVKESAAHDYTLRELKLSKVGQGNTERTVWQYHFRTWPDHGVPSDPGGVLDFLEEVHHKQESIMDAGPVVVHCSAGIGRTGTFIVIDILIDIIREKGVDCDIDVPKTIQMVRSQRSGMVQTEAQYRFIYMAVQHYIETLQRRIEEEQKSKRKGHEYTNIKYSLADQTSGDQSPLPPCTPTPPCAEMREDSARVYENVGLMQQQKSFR
Test: Inhibition of full length wild type recombinant human IRS-1 peptide activated SHP2 (1 to 525 residues) using DIPMUP as substrate preincubated for 30 mins followed by substrate addition and measured after 30 mins by fluorescence based analysis
For each record, check the reported IC50: if it is below 4 µM write rule met, else write rule not met.

Past entries and their recorded results:
[
  {
    "smilesData": "C[C@@H]1OCC2(CCN(c3nnc(Sc4cccc(Cl)c4Cl)s3)CC2)[C@@H]1N",
    "assignedClass": "rule met"
  },
  {
    "smilesData": "CC1(N)CCN(c2nnc(Sc3ccc(Cl)c(Cl)c3)s2)CC1",
    "assignedClass": "rule not met"
  },
  {
    "smilesData": "CC1(N)CCN(c2nnc(Sc3ccccc3Cl)s2)CC1",
    "assignedClass": "rule met"
  },
  {
    "smilesData": "CC1(N)CCN(c2nnc(-c3cccc(Cl)c3Cl)s2)CC1",
    "assignedClass": "rule not met"
  },
  {
    "smilesData": "NC1CCN(c2nnc(Sc3cccc(Cl)c3Cl)s2)CC1",
    "assignedClass": "rule not met"
  }
]

Prompt: Decide: IC50 of CC1(N)CCN(c2nnc(Sc3ccc(Cl)cc3Cl)s2)CC1 strictly below 4 µM?
Response: rule not met

Prompt: Decide: IC50 of CC1(N)CCN(c2nnc(-c3cccc4ccccc34)s2)CC1 strictly below 4 µM?
Response: rule not met
